The reported numbers originate from the DeepSol protein solubility set.

Assay: soluble on expression in E. coli; label from the status in PepcDB or PDB records
experimental-readout: soluble on expression in E. coli

residue-sequence	observed-measurement
GMSRSPFQTFVWRSEIFECQSTDIQRFYSLLAIETERLGLGSKILGQAGHHPLYLLQSPGQKAGLPNLLISAGFHGEESAGPWGLLHFLSQLDGELFKRVNLSVLPLVNPTGFAKGHRFNELGENPNRGFFIENGKAKPGADTSAEGRILLEHAHLLQVASRDGILTCHEDVLMTDTYVYTFEPSQAPGRFSHSLRDALGQYFPIAADGDVDNCPVRSGVIFNHFDTSFESFLVRSGARVGCCSETPGQQPLDQRILANAAAMNTFVNMLAPELS	soluble
AHHHHHHGSINNAQPPIYEEGLEELMQELKGKYHATNDYRWAILNSDITFITVGTPSKPDGSIDLTHVKQAAKSIGKALRDKEDYHVVVVKSTVLPGTTEEVVKPILEKHSGKKAFKDFGLAMNPEFLREGVALKDFLNPDRIVLGVQDEKTKKILEELYEPINAPKLIVDIKTAEMIKYASNAFLATKISFANEIGNICKKLGIDSWKVFEGVGLDHRISPHFFKTGIGFGGSCFPKDVKALIKKAEEIGENPLILKAVIEVNERQPLKMIELLKKHIPELKGRKIGVLGLAFKPNTDDVRETRAYIIIKKLLEEGASVIAYDPKAMENFKRFYPDVSGGIEYATSPEDVLKSTEIILIVTEWPDFEELDYSGKIVIDGRRIKAAERTARIYEGVCW	soluble
MQQSYNPQNSLTATTSYSEQEIVCICESLFNEGLQTGRTEQLANFIYNLPQCYQVMESVLKAQALVYFTTQNWKMLYKLLECSKFSPHNHTVLQNLWLDAHYKEAAKTKDRELGAVCKYRIRKKNPFPNTIWDGEETNYCFKSKSRNVLRDAYKKCQYPSVEDKRRLAQQTELSIIQVSNWFKNKRQRERAAGQLDRSSARSNDSDDGSSGCESKPPMNIDSPAPPPLPTSFDLQPYYPSPYTFAPHCDFSYIQNL	not soluble
MSGNIGANPAIIKLSWIEAAVDAHKTLNFEPSGRKRIGFDVADSGTDKCANVYRHGSVVFWADEWKAKEDELLKSCQRTYQAALEREADIVYDSIGVGASAGAKFSEINADRKSENAYARRVNYQRFNAGAGVHEPDDEYNGIPNKDFFANLKAQAWWLTVSEIRLTPLTTENSILWMS	not soluble
GPGSMAATTEVTPEHVLQLTAPSTGFLCPITANTYNIEFYSFVVRDADTKQVMFEVERDASTYPSVASLAQLPEEQQQAARTIFYRFPPSMLRKQRVSATLLFGVNGDKPVPDLRMIERHYFRNTLVKTFDFKFGFCIPHSRNTWEAVYDVPQFNAEWLEAIEKGTNEMTSDSFYFADGRLIMHNRAFYDYSAPEEEFTK	soluble
MNFYSLSVFIALVFSFNAADGHRCHRRGNGGFSKIFDKSTIQKIVPFFLIKIQNQNKNNIF	not soluble

====

Assay: soluble on expression in E. coli; label from the status in PepcDB or PDB records

residue-sequence	soluble on expression in E. coli
MTVVNEYRPVEVFFGEGAVKKAGEVGRRFGFKALIVTGRKSTKESGALDKLINSLKQNQIEYVVFDEITPNPTDKQVNKGAEIAVNEKVDFIVGIGGGSVLDAAKAISIVSSNEGYAWDYVRYPEGSRLIPFLNRPVITIPTTAGTGSEVNRYSVLTNPMTKEKMVISHSLNYPKVALVDPELTYSMPPRLTALTGFDALMHALESLTNKRENFIAEEYSVKAIELIRKWLPVAFEEPENKEARRYMSYAAMLAGIAIDHLGVALIHAMEHPVSGHYPEVAHAEGLSALAPYITAFNYRGNPEKYALFARLMGEEEKPHKAVDALVKFIERFSLPKTLKELGVEKEKLPRLAEDVYMCARHSFAVNPVEVGMEEVEELYERAYEGRL	soluble
MSLINGSDPRYNFNVAPYPYCRLCKGHKHMCGLRVCPILERFQEVFPRLDLHGDISTSTPPSIFIGEYNYPSVYGGIMSVVDPERPYARRDMFDLGMPEIIERNANLFRNVKTVSVHNLSEKTVEQIQEAAMALNELRVESRIVGKEKHFDFFDSPVGPMYKSENIKVYGNAKTPRAAQDVIYDIDLNSTEALKILYMNSIDINYITGLLSGGLLGIEKKRKLVPTRWSITAVDDTISRYLKSDALNYESIDKPMVFSYSRFGNHFNIILLPRGTAFEMQEYWEIGSLWGSDGRVSIDFEGHHHHHH	soluble
